%-inhibition of NEK6 values for the compounds below.
Biological target: panel of more than 300 wild-type and mutant kinases (313 kinase panel) (Homo sapiens, UniProt Q9HC98)
Assay: Kinase profiling in a biochemical assay panel (mobility shift assays and ELISA), %-inhibition at 1 μM; selectivity entropy
Conditions: kinase NEK6; 1 μM

compound	%-inhibition of NEK6 (%)
CO[C@H]1C[C@@H]2CC[C@@H](C)[C@@](O)(O2)C(=O)C(=O)N2CCCC[C@H]2C(=O)O[C@H]([C@H](C)C[C@@H]2CC[C@@H](OCCO)[C@H](OC)C2)CC(=O)[C@H](C)/C=C(\C)[C@@H](O)[C@@H](OC)C(=O)[C@H](C)C[C@H](C)/C=C/C=C/C=C/1C	-6.38
COc1cc2nccc(Oc3ccc(NC(=O)C4(C(=O)Nc5ccc(F)cc5)CC4)cc3)c2cc1OC [cabozantinib]	-3.21
Cc1ccc(Nc2nccc(N(C)c3ccc4c(C)n(C)nc4c3)n2)cc1S(N)(=O)=O	-3
COc1cc2c(Nc3ccc(Br)cc3F)ncnc2cc1OCC1CCN(C)CC1	-4.3
